TEST PROTOCOL: TOX21_p53_BLA_p2_viability: Viability Assessment in the Tox21 HCT-116 p53 Agonism Beta-lactamase Assay, Phase 2 (AID 2283591);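 further: compound exposure lasted 16 h at 37 °C; actives lower the ATP signal meaning cytotoxicity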
Records with an inconclusive call do not appear. The source made the active and inactive calls. How the source made its calls: active means hit-call score of the fitted dose curve at least 0.9, where 1 is the maximum; inconclusive means response in the unintended direction; inactive means score below 0.9.
Bench note: report the call from active, inactive

- MOLECULE: "COc1cc([N+](=O)[O-])ccc1N"
  ASSIGNED CATEGORY: "inactive"
- MOLECULE: "CC(C)(C)C1CCCCC1O (stereo not given)"
  ASSIGNED CATEGORY: "inactive"
- MOLECULE: "CC1=NN(c2ccccc2)C(=O)C1"
  ASSIGNED CATEGORY: "inactive"

Challenge: Fill in: this test's call for CCCC=O is ___
Response given: inactive

Challenge: Fill in: this test's call for C=CC(=O)OCC(CO)(COCC(COC(=O)C=C)(COC(=O)C=C)COC(=O)C=C)COC(=O)C=C is ___
Response given: active

###

Read-out: Low-density lipoprotein receptor (LDLR), LDLR (gene 3949)
TEST PROTOCOL: BSK_CASM3C_LDLR: BioMAP Diversity Plus: CASM3C Assay for Low-density lipoprotein receptor (LDLR) Biomarker Activity (AID 2283045);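 further: LDLR protein level on the cell surface quantified by ELISA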
ASSAY CONDITIONS: primary human coronary artery smooth muscle cells; actives raise or lower the signal
Active and inactive are the calls of the source. Rule for the calls: active = hit-call score of the fitted dose curve at least 0.9, where 1 is the maximum; inactive = score below 0.9.
Bench note: report the call from active, inactive

Example results:
- COMPOUND: "Cc1ccc(C(=O)c2ccccc2)cc1"
  ASSIGNED CATEGORY: "inactive"
- COMPOUND: "O=C(NCc1ncc(C(F)(F)F)cc1Cl)c1c(Cl)cccc1Cl"
  ASSIGNED CATEGORY: "inactive"
- COMPOUND: "CCCCC=O"
  ASSIGNED CATEGORY: "inactive"

Challenge: Fill in: this test's call for Oc1ccc(Cc2ccccc2O)cc1 is ___
Response given: inactive

Challenge: Fill in: this test's call for CCCCCc1ccc(O)cc1 is ___
Response given: active

Challenge: Fill in: this test's call for O=C1OC2(c3ccccc31)c1cc(I)c(O)c(I)c1Oc1c2cc(I)c(O)c1I is ___
Response given: inactive

Challenge: Fill in: this test's call for O=P(O)(O)CCC(F)(F)C(F)(F)C(F)(F)C(F)(F)C(F)(F)C(F)(F)F is ___
Response given: inactive

Challenge: Fill in: this test's call for CN(CCO)S(=O)(=O)C(F)(F)C(F)(F)C(F)(F)C(F)(F)C(F)(F)C(F)(F)C(F)(F)C(F)(F)F is ___
Response given: inactive

Challenge: Fill in: this test's call for C=CC(C)(CCC=C(C)C)OC(C)=O (stereo not given) is ___
Response given: inactive

Challenge: Fill in: this test's call for OCC(F)(F)C(F)(F)C(F)(F)C(F)(F)C(F)(F)C(F)(F)C(F)(F)C(F)(F)C(F)(F)C(F)(F)C(F)(F)F is ___
Response given: inactive

Challenge: Fill in: this test's call for O=P(O)(O)CCC(F)(F)C(F)(F)C(F)(F)C(F)(F)C(F)(F)C(F)(F)C(F)(F)C(F)(F)F is ___
Response given: inactive

Challenge: Fill in: this test's call for CN(Cc1cnc2nc(N)nc(N)c2n1)c1ccc(C(=O)N[C@@H](CCC(=O)O)C(=O)O)cc1 is ___
Response given: inactive

Challenge: Fill in: this test's call for CCCCCCCCCCCCCCCCCC[N+](C)(C)Cc1ccccc1 is ___
Response given: active

Challenge: Fill in: this test's call for CCC(C)c1ccccc1O (stereo not given) is ___
Response given: inactive

Challenge: Fill in: this test's call for CC1=NN(c2ccccc2)C(=O)C1 is ___
Response given: inactive

Challenge: Fill in: this test's call for CCCCC(CC)C(=O)OCCOCCOCCOCCOC(=O)C(CC)CCCC (stereo not given) is ___
Response given: inactive

Challenge: Fill in: this test's call for OCC(CO)(CBr)CBr is ___
Response given: inactive

Challenge: Fill in: this test's call for C=CC(=O)OCCC(F)(F)C(F)(F)C(F)(F)C(F)(F)C(F)(F)C(F)(F)C(F)(F)C(F)(F)F is ___
Response given: inactive

Challenge: Fill in: this test's call for CC(=O)Nc1ccc(O)cc1 is ___
Response given: inactive

Challenge: Fill in: this test's call for Clc1ccc(Nc2nnc(Cc3ccncc3)c3ccccc23)cc1 is ___
Response given: inactive

Challenge: Fill in: this test's call for O=C(c1ccccc1)c1ccccc1 is ___
Response given: inactive

Challenge: Fill in: this test's call for O=C(CCCN1CCC(O)(c2ccc(Cl)cc2)CC1)c1ccc(F)cc1 is ___
Response given: active

Challenge: Fill in: this test's call for O=C1NS(=O)(=O)c2ccccc21 is ___
Response given: inactive

Challenge: Fill in: this test's call for N=C(N)c1ccc(OCCCCCOc2ccc(C(=N)N)cc2)cc1 is ___
Response given: inactive

Challenge: Fill in: this test's call for CC[N+](CC)(CC)Cc1ccccc1 is ___
Response given: inactive
